experiment: High Content Assay for Compounds that inhibit the Assembly of the Perinucleolar Compartment: DNA Intercalation/PicoGreen Displacement Assay; conditions: fluorescence (intercalation counter-screen); series mostly up to 57.1 µM
Inconclusive results are not listed. Calls of active or inactive are those of the source. Calls follow the shape of the dose curve; as a rule, active = well fitted inhibition curve with a large enough effect; inconclusive = small, poorly fitted or top-dose-only effect, or effect the other way; inactive = no such curve, though single readings can be large or run the other way.
Pick one and only one: 1 = active, 0 = inactive

Lookup: Fill in: this test's call for O=[N+]([O-])c1cc(/C=N/Nc2nc3ccccc3[nH]2)c(O)cc1O is ___
Found: 1

Lookup: # lookup: test call for O=C1C(=Cc2cccs2)C(=O)c2ccccc21
Found: 0

Lookup: Name the outcome recorded for Cc1ccccc1C(=O)NNC(=S)Nc1cccc(C(F)(F)F)c1 in the assay.
Found: 0

Lookup: Can you look up the reported call for CCCNC1=C(N(C(C)=O)c2cccc(F)c2)C(=O)c2ccccc2C1=O for me?
Found: 0

Lookup: Per the records of this test, what outcome belongs to CC(=O)/C(C#N)=C1\NC(=O)C(Cc2ccc(C)c(C)c2)S1 (stereo unspecified) ?
Found: 0

Lookup: Fill in: this test's call for CCN(CC)C(=S)SSC(=S)N(CC)CC is ___
Found: 0

* * *

assay: High Content Assay for Compounds that inhibit the Assembly of the Perinucleolar Compartment: DNA Intercalation/PicoGreen Displacement Assay; conditions: fluorescence (intercalation counter-screen); series mostly up to 57.1 µM
Records with an inconclusive call do not appear. Active and inactive are the calls of the source. Calls follow the shape of the dose curve; as a rule, active = well fitted inhibition curve with a large enough effect; inconclusive = small, poorly fitted or top-dose-only effect, or effect the other way; inactive = no such curve, though single readings can be large or run the other way.
Answer with one of the outcomes T = active, F = inactive

Lookup: What was the test verdict on CCOC(=O)CSc1nc2c(sc3ccc([N+](=O)[O-])cc32)c(=O)n1Cc1ccco1 ?
Found: F

Lookup: Please share the test call associated with Cc1ccc(NC2=C/C(=N/S(=O)(=O)c3cccs3)c3ccccc3C2=O)cc1 .
Found: T

Lookup: # lookup: test call for Cc1cc(C)c(S(=O)(=O)/N=C2/C=C(Sc3ncn[nH]3)C(=O)c3ccccc32)cc1C
Found: T
